- protocolDetails: chemical genetic growth profiling, strain panel (AID 1159580);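 further: tested at 20 µM; growth read once vehicle control cultures reached saturation at 30 °C; 1 = growth at the plate median or of vehicle wells; lower values mean less growth of the strain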
- protocolConditions: S. cerevisiae deletion strains, growth OD, locus YLR342W, strain FKS1 (second series), hits give low values
The whole screen tested about 5,500 compounds, of which about 2,000 (36%) were called active. Not shown: some 18% with an inconclusive outcome. This is one part of the list.
Sorting guide: entries reporting normalized growth beneath 1 go in the true (1) pile, the rest go in the false (0) pile.

CCCCOC(=O)c1ccccc1C(=O)OCc1ccccc1 | true (1)
Cc1cc(-c2ccccc2)nnc1NCCN1CCOCC1 | false (0)
COc1cc(-c2coc3cc(OCc4ccccc4)c(OC)c(O)c3c2=O)cc(O)c1OC | true (1)
Cc1ccc(C)c(OCCCC(C)(C)C(=O)O)c1 | true (1)
CCNC(=O)CC[C@H](N)C(=O)O | false (0)
C/C1=C\CCC(=O)C2CC(C)(C)C2CC1 (stereo unspecified) | false (0)
Oc1ccc(Cl)cc1Cc1cc(Cl)ccc1O | true (1)

###

- protocolDetails: chemical genetic growth profiling, strain panel (AID 1159580);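 further: tested at 20 µM; growth read once vehicle control cultures reached saturation at 30 °C; 1 = growth at the plate median or of vehicle wells; lower values mean less growth of the strain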
- protocolConditions: S. cerevisiae deletion strains, growth OD, locus YPL240C, strain hsp82, hits give low values
In all, about 5,500 compounds went through this assay and about 2,000 (36%) were called active. Roughly 18% stayed inconclusive and do not appear here. The list shows a part of the results.
readoutKind: normalized growth

Cc1cccc(C)c1NC1=NCCCS1 | 0.999
CO[C@@]1(NC(=O)CSCC#N)C(=O)N2C(C(=O)O)=C(CSc3nnnn3C)CSC21 (stereo partly drawn) | 0.997
Cc1coc2c1C(=O)C(=O)c1c-2ccc2c1CCCC2(C)C | 0.944
C[C@H]1CC[C@@H](C(C)(C)O)CC2=C1CC[C@@H]2C | 1.01
CC(=O)N[C@@H](CS)C(=O)O | 0.999
CC[C@H](C)C(=O)O[C@H]1CCC=C2C=C[C@H](C)C(CCC3C[C@@H](O)CC(=O)O3)[C@H]21 (stereo partly drawn) | 1.01
O=C(O)CN1C(=O)c2cccc3cccc(c23)C1=O | 0.98
COc1ccc2c(c1)O[C@H]1c3ccc(OC)cc3OC[C@@H]21 | 1.02
COc1ccc2c(c1OC)C(=O)OC2[C@H]1c2c(cc3c(c2OC)OCO3)CCN1C (stereo partly drawn) | 1.01
CCC(C)(C)C(=O)O[C@H]1C[C@@H](C)C=C2C=C[C@H](C)[C@H](CC[C@@H]3C[C@@H](O)CC(=O)O3)[C@H]21 | 0.997
O=C1[C@H](CCC(O)c2ccc(F)cc2)[C@@H](c2ccc(O)cc2)N1c1ccc(F)cc1 (stereo partly drawn) | 0.994
Oc1ccc(Cl)cc1 | 1.01
CC[N+](CC)(CC)CCOc1cccc(OCC[N+](CC)(CC)CC)c1OCC[N+](CC)(CC)CC | 1

###

- protocolDetails: chemical genetic growth profiling, strain panel (AID 1159580);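 further: tested at 20 µM; growth read once vehicle control cultures reached saturation at 30 °C; 1 = growth at the plate median or of vehicle wells; lower values mean less growth of the strain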
- protocolConditions: S. cerevisiae deletion strains, growth OD, locus YDR392W, strain spt3, hits give low values
In all, about 5,500 compounds went through this assay and about 2,000 (36%) were called active. Inconclusive results (about 18%) are left out. The list shows a part of the results.
We begin with a simple list: items and their reported normalized growth.
readoutKind: normalized growth

O=c1cc(-c2ccccc2O)oc2cc(O)ccc12 | 0.92 (inactive)
NS(=O)(=O)c1cc2c(cc1Cl)NC(C(Cl)Cl)NS2(=O)=O (stereo not drawn) | 0.917 (inactive)
C=C1C(=O)OC2CC1C(OC(C)=O)C/C(C)=C/CC/C(C)=C/CC[C@]2(C)O (stereo partly drawn) | 0.977 (inactive)

Data origin, for the record: PubChem BioAssay AID1159580
